meta.source: ChEMBL document CHEMBL3988442

organism: Homo sapiens; test: To identify inhibition of the IFN signalling (Jak-Stat) pathway via expression of an eGFP reporter gene under the control of an IFN-stimulated response element (ISRE) containing MxA promoter.; format: functional; parameters: scale not given: direction of the effect not stated beside the values; details: 30 µM
Recorded Percent Effect by entry
Number only, in %; omit the unit.

[
  {
    "compound": "CC1CCN(C(=O)c2cccc3ncccc23)CC1",
    "Percent Effect, %": 19
  }
]

What does the data say about its Percent Effect? Entry: O=C(NCCN1CCNCC1)c1nc2ccccc2c(=O)[nH]1
-0.251

And the next one, Clc1ccc(OCCCN2CCN(c3cnccn3)CC2)cc1 ?
3.86

And for CCS(=O)(=O)NC(C(=O)NC)c1ccc(F)c(F)c1 (stereo not drawn) ?
-11.3

Again, but for COc1ccc(C)cc1C(C)NC(=O)NCCCn1cncn1 (stereo not drawn)
4.64

Cool, now Cn1cc(C(=O)N2CCCC(n3cccn3)C2)c2ccccc21 (stereo not drawn)
9.06

Same again, this time with COCC1c2c(cnn2CC2CC2)CCN1Cc1ccc(OC)cc1 (stereo not drawn)
91.4

Now consider COc1ccc(C2CC(=O)Nc3c2cnn3C)cc1 (stereo not drawn) and answer again.
39.8

Thanks! And Cc1cnn(CC2CCCCN2Cc2nnc(-c3ccco3)o2)c1 (stereo not drawn) ?
7.01

====

Property: Percent Effect; scope: individual compounds
molecular target: Ubiquitin-activating enzyme e1, putative (Leishmania donovani (strain BPK282A1)) (UniProt E9BSI1); assay: Leishmania donovani Ubiquitin Activating Enzyme (LdE1); format: functional; set-up: scale not given: direction of the effect not stated beside the values; details: 30 µM
Sequence (E9BSI1 as listed by the source): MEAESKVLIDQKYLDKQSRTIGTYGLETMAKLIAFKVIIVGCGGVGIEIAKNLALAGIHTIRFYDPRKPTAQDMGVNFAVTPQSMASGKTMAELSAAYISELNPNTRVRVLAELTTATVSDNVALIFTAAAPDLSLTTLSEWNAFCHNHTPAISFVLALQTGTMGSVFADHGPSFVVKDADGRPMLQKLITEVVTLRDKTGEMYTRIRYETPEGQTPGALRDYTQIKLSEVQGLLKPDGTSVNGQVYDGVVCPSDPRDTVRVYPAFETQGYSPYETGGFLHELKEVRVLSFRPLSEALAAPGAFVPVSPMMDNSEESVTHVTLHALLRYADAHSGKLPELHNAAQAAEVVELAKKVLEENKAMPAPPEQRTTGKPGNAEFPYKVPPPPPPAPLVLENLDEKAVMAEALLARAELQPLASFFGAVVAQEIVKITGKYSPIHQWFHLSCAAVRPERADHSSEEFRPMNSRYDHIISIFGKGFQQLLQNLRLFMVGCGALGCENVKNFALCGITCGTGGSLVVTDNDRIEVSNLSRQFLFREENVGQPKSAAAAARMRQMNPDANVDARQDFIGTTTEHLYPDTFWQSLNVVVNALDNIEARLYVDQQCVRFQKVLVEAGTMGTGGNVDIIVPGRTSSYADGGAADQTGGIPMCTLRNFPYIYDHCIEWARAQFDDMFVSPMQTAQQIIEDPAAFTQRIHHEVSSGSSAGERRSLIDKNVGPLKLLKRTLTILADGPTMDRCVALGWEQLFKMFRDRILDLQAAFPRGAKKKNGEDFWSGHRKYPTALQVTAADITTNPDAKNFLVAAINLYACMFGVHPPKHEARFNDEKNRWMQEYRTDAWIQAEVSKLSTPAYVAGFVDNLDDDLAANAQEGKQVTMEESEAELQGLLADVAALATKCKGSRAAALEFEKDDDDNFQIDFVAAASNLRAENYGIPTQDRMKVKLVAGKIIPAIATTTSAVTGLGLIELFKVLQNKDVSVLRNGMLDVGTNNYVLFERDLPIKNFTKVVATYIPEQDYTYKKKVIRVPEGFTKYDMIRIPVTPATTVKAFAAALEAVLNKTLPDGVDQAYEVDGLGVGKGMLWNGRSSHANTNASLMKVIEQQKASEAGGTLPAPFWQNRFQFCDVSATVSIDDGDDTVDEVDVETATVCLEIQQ
Measured potencies and affinities stand elsewhere.
Note: unit % is implicit; provide only the numeric part.

[
  {
    "compound": "Cc1noc(C2CCN(Cc3cc(=O)n(C)c(=O)n3C)CC2)n1",
    "Percent Effect / %": 16
  }
]

Quick check: Percent Effect of CNC(=O)[C@H]1C[C@@H]2CN(S(=O)(=O)c3ccccc3)C[C@@H]2N1C(C)=O ?
7.79

Quick one: CC1c2ncc(CNC(=O)C3CC3)n2CCN1Cc1cnn(C)c1 (stereo not given)
8

# iterate: Cc1nn(C)cc1CN(C)Cc1cc2c(cc1OC(F)F)OCO2
0

Same for O=C(Nc1cccnc1)[C@H]1CO[C@H]2CCN(c3ncc(F)cn3)C[C@H]2C1
5.33

====

Target: Tyrosyl-tRNA synthetase, putative (Trypanosoma cruzi (strain CL Brener))
Sequence (whole entry): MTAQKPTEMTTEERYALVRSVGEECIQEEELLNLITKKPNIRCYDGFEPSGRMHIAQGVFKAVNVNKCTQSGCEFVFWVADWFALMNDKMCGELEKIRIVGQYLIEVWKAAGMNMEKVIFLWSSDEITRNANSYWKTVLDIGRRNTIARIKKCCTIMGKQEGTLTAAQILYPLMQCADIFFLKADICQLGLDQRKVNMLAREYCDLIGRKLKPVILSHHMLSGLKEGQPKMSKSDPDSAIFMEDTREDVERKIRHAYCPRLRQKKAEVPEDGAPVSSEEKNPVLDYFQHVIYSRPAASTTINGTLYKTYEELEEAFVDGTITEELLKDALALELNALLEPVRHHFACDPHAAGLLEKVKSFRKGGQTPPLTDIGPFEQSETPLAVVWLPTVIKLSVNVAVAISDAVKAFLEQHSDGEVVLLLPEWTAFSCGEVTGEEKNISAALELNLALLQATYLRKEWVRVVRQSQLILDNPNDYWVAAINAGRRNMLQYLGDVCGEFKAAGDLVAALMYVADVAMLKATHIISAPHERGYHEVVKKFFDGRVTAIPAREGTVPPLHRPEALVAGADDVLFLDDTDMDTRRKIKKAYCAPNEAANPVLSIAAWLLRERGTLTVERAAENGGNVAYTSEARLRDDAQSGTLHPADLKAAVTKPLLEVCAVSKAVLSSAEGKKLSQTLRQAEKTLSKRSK
Assay: Trypanosoma cruzi tyrosyl tRNA synthetase (TcYRS) _High Tyrosine SOP; also: in the data most compounds retested in dose-response had high values
Assay type: functional
Set-up: scale not given: direction of the effect not stated beside the values
Conditions: 30 µM
Below, each entry is listed alongside its reported Percent Effect.
The response must be a number in % with no trailing unit.

May I ask what Percent Effect has been recorded for O=C(NCc1ccco1)C1CCCN1Cc1nc(-c2ccco2)no1 (stereo unspecified) ?
7.92

Now give it for CCc1nc(CN2CCCN(C(=O)C(C)n3cncn3)CC2)cs1 (stereo unspecified) too.
4.85

Here is the next compound: Cc1nc(N(C)C)nc2c1COCC21CCN(C(=O)NC(C)C)C1 (stereo unspecified)
0.99

Likewise for COCCN(C)C[C@@H]1CN(C(=O)c2ccoc2)C[C@@H]1CO ?
6.88

Moving on to Cn1cc(CN2CCCn3cnc(CN4CCCC4=O)c3C2)cn1
1.04

Now give it for CNc1cc(N2CCCC2CNCc2ccc(Cl)o2)ncn1 (stereo unspecified) too.
15.8

Entry to check: Cc1nnc(NC(=O)NC2CCOc3ccccc32)s1 (stereo unspecified)
12.5

And the next one, NC(=O)NCC(=O)N1C[C@H]2CC[C@@H]1CN(C1Cc3ccccc3C1)C2 ?
5.38

What about this compound? CC(C)CN1CCCn2nc(CNC(=O)c3cccnc3O)cc2C1
6.01

One more compound: CCn1ncc(NC(=O)c2cc(C3CC3)nc3c2c(C)nn3C)c1C
2.12

Another compound: O=C(CCn1cccn1)N1C[C@@H]2CC[C@H](C1)N(Cc1ccccn1)C2=O
5.82

====

# key: entry, value: Percent Effect
molecular target: Chromo domain-containing protein 1 (Saccharomyces cerevisiae (strain ATCC 204508 / S288c) (Baker's yeast)); assay: ScCHD-1 Enzyme Inhibition Assay; assay type: functional; parameters: scale not given: in the data most compounds retested in dose-response had high values; conditions: 30 µM
Give just the number in %; leave the unit off.

Study these solved cases before continuing.
[
  {
    "compound": "N#Cc1ccccc1OCCN1CCCC1Cn1cccn1 (stereo not given)",
    "Percent Effect [%]": -5.36
  },
  {
    "compound": "CC(Nc1cccc(CN2CCOC2=O)c1)C(=O)N1CCNC1=O (stereo not given)",
    "Percent Effect [%]": -2.72
  },
  {
    "compound": "Cc1ccc(F)c(-n2nnc(C(=O)O)c2-c2ccncc2)c1",
    "Percent Effect [%]": -1.85
  },
  {
    "compound": "Cc1csc2c(=O)n3c(nc12)CCN(C(=O)c1cccnc1)CC3",
    "Percent Effect [%]": -13
  },
  {
    "compound": "Cc1cc(CN(C)C(=O)c2ccc(Cl)c(S(C)(=O)=O)c2)no1",
    "Percent Effect [%]": -11.5
  },
  {
    "compound": "COCCCNc1nccc(-c2c[nH][nH]c2=O)n1",
    "Percent Effect [%]": -11.7
  },
  {
    "compound": "CC(NC(=O)N(C)CCCOc1ccc(F)cc1)c1nncn1C (stereo not given)",
    "Percent Effect [%]": -10.2
  },
  {
    "compound": "c1cnc(N2CCC3(CC2)CN(CC2CC2)c2ccccc23)nc1",
    "Percent Effect [%]": 9.61
  }
]

Can you share its Percent Effect? I mean this compound: Cc1nn(C)c(C)c1CNCc1ccc(N2CCOCC2)nc1
-25.1

Next record, please: Cc1cc(C)n(CC2CN(Cc3cccc(C(N)=O)c3)CCO2)n1 (stereo not given)
97.6

Field entry: COc1cccc(-n2nnc(C(=O)N3CCCC3)c2C)c1
-3.38

====

Entries annotated with measured Percent Effect
molecular target: Sialic acid-binding Ig-like lectin 9 (Homo sapiens); assay: Hs-Siglec9 ALPHAscreen SOP 20170721; set-up: scale not given: direction of the effect not stated beside the values; details: 10 µM
Entry format: amount then unit.

Record excerpt, results attached:
[
  {
    "molecule": "Cn1cnc(-c2cc(C(=O)N3CCOCC3)c3ccccn23)c1",
    "readout type": "Percent Effect",
    "obs value": "-4.69%"
  },
  {
    "molecule": "CN(Cc1ccc(F)cc1)C(=O)CN1CCCC(Cn2cncn2)C1 (stereo unspecified)",
    "readout type": "Percent Effect",
    "obs value": "7.47%"
  },
  {
    "molecule": "Cc1noc(C)c1C(=O)NCc1ccnc(OCC(F)(F)F)c1",
    "readout type": "Percent Effect",
    "obs value": "0.107%"
  }
]

Please look up its Percent Effect: COc1cccc(CNC(=O)N2CCN(Cc3cc(C)on3)CC2)c1
-7.32%

Now give it for O=C(NCCc1ccccc1)C1CCCN(c2ccc3nncn3n2)C1 (stereo unspecified) too.
-1.4%

For CCCS(=O)(=O)N1CCN(c2cc(-n3cnc(C)c3C)nc(C)n2)CC1 then?
-0.358%

====

target: Chromo domain-containing protein 1 (Saccharomyces cerevisiae (strain ATCC 204508 / S288c) (Baker's yeast)); experiment: ScCHD-1 Enzyme Inhibition Assay; assay type: functional; design: scale not given: in the data most compounds retested in dose-response had high values; settings: 30 µM
The entries below come with measured Percent Effect values attached.
Give just the number in %; leave the unit off.

[
  {
    "compound": "c1cncc(CN2CCc3ncnc(C4CCOC4)c3CC2)c1 (configuration not stated)",
    "Percent Effect / %": -0.839
  }
]

Requested read-out: Percent Effect. Entry: c1cnc(-c2nc(CN3CCC(c4ccn[nH]4)CC3)cs2)nc1
-3.65

Also Cc1ccc(CC(=O)N2CCc3nnc(N(C)C)cc3C2)cn1 , if possible.
-4.95

Would you mind doing CC(C)C(C(=O)N1CCCN(Cc2cnn(C)c2)CC1)n1cncn1 (configuration not stated) as well?
2.06

Please do the same for c1ccc(Cn2cc3c(n2)C(COCC2CC2)OCC3)nc1 (configuration not stated) as well.
-7.74

What about COc1ccccc1CC(=O)N1CC[C@@]2(CCCO2)[C@@H](OC)C1 ?
-24.2

Repeat with CC(CN1CCOCC1)NC(=O)NCc1ccc(Cl)s1 (configuration not stated)
-3.24

Next: CC(C)CN1CCCn2nc(CNC(=O)CCN)cc2C1
-5.7

Would you mind doing COCCNC(=O)CN1CCN(c2nc(C)cs2)C(C)C1 (configuration not stated) as well?
-7.53

And for O=C(CN1CCC(c2ccnn2CCO)CC1)NCC1CC1 ?
-5.59

CCN(Cc1cccc2c1OCO2)C(=O)C(C)c1cccnc1 (configuration not stated) , same question.
-5.71

Also check Cc1cn2c(n1)CCC(NC(=O)c1c[nH]c(C)n1)C2 (configuration not stated)
-13.6
